experimental-target: CYP2C19 (Homo sapiens, UniProt P33261)
Construct: Pooled human liver microsomes (from sixteen individuals) were used as the source of enzymes; tissue XenoTech, LLC; host or cells: human liver microsomes, pool of sixteen donors
Sequence (P33261 whole entry): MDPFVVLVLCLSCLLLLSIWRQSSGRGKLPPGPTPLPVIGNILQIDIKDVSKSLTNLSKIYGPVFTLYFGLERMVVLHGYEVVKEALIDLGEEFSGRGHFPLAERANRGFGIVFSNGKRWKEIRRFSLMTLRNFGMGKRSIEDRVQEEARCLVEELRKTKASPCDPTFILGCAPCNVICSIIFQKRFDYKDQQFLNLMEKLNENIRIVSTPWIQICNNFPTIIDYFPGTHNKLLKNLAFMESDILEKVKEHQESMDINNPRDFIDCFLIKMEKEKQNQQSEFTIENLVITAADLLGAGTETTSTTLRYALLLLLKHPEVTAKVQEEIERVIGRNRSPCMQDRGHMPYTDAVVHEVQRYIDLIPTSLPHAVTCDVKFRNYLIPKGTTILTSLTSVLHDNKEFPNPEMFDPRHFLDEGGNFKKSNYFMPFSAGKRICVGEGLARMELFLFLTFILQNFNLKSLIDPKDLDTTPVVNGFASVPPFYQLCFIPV
test-description: CYP2C19 inhibition, S-mephenytoin 4′-hydroxylation in human liver microsomes
Format: in vitro ADME
condition-parameters: time-dependent inhibition, 30-minute pre-incubation
observed-property: IC50

Query string: Field request: IC50 | item: CC(C)(C)NC(=O)NC(C(=O)N1CC2C([C@H]1C(=O)NC(CC1CCC1)C(=O)C(N)=O)C2(C)C)C(C)(C)C (stereo partly shown)
Result string: > 100 µM

====

experimental-target: CYP2A6 (Homo sapiens, UniProt P11509)
Construct: Pooled human liver microsomes (from sixteen individuals) were used as the source of enzymes; tissue XenoTech, LLC; host or cells: human liver microsomes, pool of sixteen donors
Sequence (P11509 1-494): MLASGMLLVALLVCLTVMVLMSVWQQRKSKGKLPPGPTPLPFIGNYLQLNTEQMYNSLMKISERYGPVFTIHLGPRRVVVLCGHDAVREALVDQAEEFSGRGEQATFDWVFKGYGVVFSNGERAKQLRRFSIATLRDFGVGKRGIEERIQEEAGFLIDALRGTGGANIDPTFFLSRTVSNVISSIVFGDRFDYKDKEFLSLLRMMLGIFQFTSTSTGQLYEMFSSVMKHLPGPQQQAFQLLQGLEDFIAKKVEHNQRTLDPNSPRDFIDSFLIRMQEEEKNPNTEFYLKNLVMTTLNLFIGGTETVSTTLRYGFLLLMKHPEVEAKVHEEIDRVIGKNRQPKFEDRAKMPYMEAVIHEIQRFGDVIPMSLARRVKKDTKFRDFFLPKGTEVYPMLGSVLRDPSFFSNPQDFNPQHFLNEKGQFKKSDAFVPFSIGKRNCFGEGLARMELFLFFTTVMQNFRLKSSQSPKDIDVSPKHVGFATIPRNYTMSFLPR
test-description: CYP2A6 inhibition, coumarin 7-hydroxylation in human liver microsomes
Assay type: in vitro ADME
condition-parameters: human, pooled human liver microsomes, pH 7.4, probe coumarin (7-hydroxylation), time-dependent inhibition, 30-minute pre-incubation; read-out: Maximum Inhibition at 100 μM
observed-property: inhibition at 5 min, 100 µM (%)
Write it as a number; the unit % goes unstated.

Query string: Please provide the recorded inhibition at 5 min, 100 µM for CC(C)(C)NC(=O)NC(C(=O)N1CC2C([C@H]1C(=O)NC(CC1CCC1)C(=O)C(N)=O)C2(C)C)C(C)(C)C (stereo partly shown) [Boceprevir] , tested on CYP2A6 (Homo sapiens, UniProt P11509).
Result string: 7.8

====

Test system: CYP3A4/5
test-description: Clinical study: effect of boceprevir on the pharmacokinetic profile of midazolam in healthy adult subjects
condition-parameters: both, human, in vivo, 4 mg, MDZ Cmax, MDZ Alone (Day 8), after boceprevir
observed-property: Cmax (ng/mL)
Numbers only; they are read as ng/mL.

Query string: I would be grateful if you could share the reported Cmax for Cc1ncc2n1-c1ccc(Cl)cc1C(c1ccccc1F)=NC2 .
Result string: 10.3

====

experimental-target: CYP1A2 (Homo sapiens, UniProt P05177)
Construct: Pooled human liver microsomes (from sixteen individuals) were used as the source of enzymes; tissue XenoTech, LLC; host or cells: human liver microsomes, pool of sixteen donors
Sequence (P05177 whole entry): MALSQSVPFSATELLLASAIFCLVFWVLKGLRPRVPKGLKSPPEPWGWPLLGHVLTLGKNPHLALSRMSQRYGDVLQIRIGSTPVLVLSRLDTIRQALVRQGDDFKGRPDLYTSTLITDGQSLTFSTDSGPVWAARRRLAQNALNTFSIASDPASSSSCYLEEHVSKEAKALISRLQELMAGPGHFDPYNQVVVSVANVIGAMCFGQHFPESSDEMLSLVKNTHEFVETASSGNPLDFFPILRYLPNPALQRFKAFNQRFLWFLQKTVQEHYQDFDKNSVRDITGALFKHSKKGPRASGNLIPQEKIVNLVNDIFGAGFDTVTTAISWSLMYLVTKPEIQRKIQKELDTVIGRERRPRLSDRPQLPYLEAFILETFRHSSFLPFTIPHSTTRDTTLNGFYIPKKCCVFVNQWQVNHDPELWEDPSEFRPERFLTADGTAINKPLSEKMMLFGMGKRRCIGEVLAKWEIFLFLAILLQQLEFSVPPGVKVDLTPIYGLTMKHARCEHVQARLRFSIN
test-description: CYP1A2 inhibition, phenacetin O-deethylation in human liver microsomes
Type: in vitro ADME
condition-parameters: time-dependent inhibition, 30-minute pre-incubation
observed-property: IC50

Query string: Recorded IC50 for CC(C)(C)NC(=O)NC(C(=O)N1CC2C([C@H]1C(=O)NC(CC1CCC1)C(=O)C(N)=O)C2(C)C)C(C)(C)C (stereo partly shown) [Boceprevir] , please?
Result string: > 100 µM
